# assay procedure: Kinetic solubility in liquid formulation containing mannitol and glycine buffer
# Type: physicochemical
# test conditions: IV vehicle: 50 mM glycine sodium, 4% mannitol, pH 9, aqueous buffer, thermodynamic from solid, RT, pH 9, Day 1
attribute measured: solubility kinetic at 1 day (µg/mL)
Just the number please, in µg/mL, no unit attached.

Q: Requested field: solubility kinetic at 1 day. Item: CNc1cc2[nH]c(=O)n(-c3ccc(NC(=O)NS(=O)(=O)c4ccc(Cl)s4)cc3)c(=O)c2cc1F [Elinogrel]
A: 3140

----------
# assay procedure: Kinetic solubility in liquid formulation containing mannitol and glycine buffer
# Format: physicochemical
# test conditions: IV vehicle: 50 mM glycine sodium, 4% mannitol, 5 °C, pH 8.8, aqueous buffer, thermodynamic from solid, 5° C., pH 8.8, Day 5
attribute measured: solubility kinetic at 5 day (µg/mL)
Just the number please, in µg/mL, no unit attached.

Q: Requested field: solubility kinetic at 5 day. Item: CNc1cc2[nH]c(=O)n(-c3ccc(NC(=O)NS(=O)(=O)c4ccc(Cl)s4)cc3)c(=O)c2cc1F [Elinogrel potassium (Form B)]
A: 1110

----------
# assay procedure: Aqueous solubility of the free acid form
# Assay type: physicochemical
# test conditions: aqueous medium, aqueous buffer; pH 1.0-7.4
attribute measured: solubility

Q: Requested field: solubility. Item: `CNc1cc2[nH]c(=O)n(-c3ccc(NC(=O)NS(=O)(=O)c4ccc(Cl)s4)cc3)c(=O)c2cc1F`
A: < 100 µg/mL

----------
# assay procedure: Thermodynamic solubility at different pH at 37° C.
# Assay type: physicochemical
# test conditions: aqueous slurry, simulated gastric fluid, thermodynamic from solid, pH 1.88
attribute measured: solubility thermodynamic at 3 days (ng/mL)
Just the number please, in ng/mL, no unit attached.

Q: Requested field: solubility thermodynamic at 3 days. Item: `CNc1cc2[nH]c(=O)n(-c3ccc(NC(=O)NS(=O)(=O)c4ccc(Cl)s4)cc3)c(=O)c2cc1F`
A: 2

----------
# assay procedure: Thermodynamic solubility at different pH at 37° C.
# Type: physicochemical
# test conditions: aqueous slurry, pH adjusted with NaOH or HCl, pH 4.2, aqueous buffer, thermodynamic from solid, pH 4.20
attribute measured: solubility thermodynamic at 3 days (µg/mL)
Just the number please, in µg/mL, no unit attached.

Q: Requested field: solubility thermodynamic at 3 days. Item: `CNc1cc2[nH]c(=O)n(-c3ccc(NC(=O)NS(=O)(=O)c4ccc(Cl)s4)cc3)c(=O)c2cc1F`
A: 0.022

----------
# assay procedure: physchem
# test conditions: 4 °C, water, thermodynamic from solid, S (solubility)
attribute measured: solubility
Answer with the number, then the unit.

Q: Requested field: solubility. Item: CNc1cc2[nH]c(=O)n(-c3ccc(NC(=O)NS(=O)(=O)c4ccc(Cl)s4)cc3)c(=O)c2cc1F [Elinogrel sodium hydrate]
A: 13 mg/mL

----------
# assay procedure: Kinetic solubility in liquid formulation containing mannitol and glycine buffer
# Type: physicochemical
# test conditions: IV vehicle: 50 mM glycine sodium, 4% mannitol, 5 °C, pH 8.8, aqueous buffer, thermodynamic from solid, 5° C., pH 8.8, Day 3
attribute measured: solubility kinetic at 3 day
Answer with the number, then the unit.

Q: Requested field: solubility kinetic at 3 day. Item: CNc1cc2[nH]c(=O)n(-c3ccc(NC(=O)NS(=O)(=O)c4ccc(Cl)s4)cc3)c(=O)c2cc1F [Elinogrel potassium (Form B)]
A: 1580 µg/mL
